Recorded below: pIC50, system UniProt:P00630.
Sequence (P00630 34-167 limits assumed): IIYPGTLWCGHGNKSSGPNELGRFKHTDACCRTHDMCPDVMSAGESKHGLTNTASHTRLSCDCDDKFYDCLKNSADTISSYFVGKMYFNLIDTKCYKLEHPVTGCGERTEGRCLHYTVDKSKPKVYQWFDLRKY
Value format note: pIC50 is -log10 of concentration (mol/L); just state the number.

Sample records with pIC50:
>>> reported("CCCCCCCCCCCCNS(=O)(=O)CC(O)C1=CC(=O)OC1O (centres unmarked)")
7.00
>>> reported("CCCCCCCCCCCCNS(=O)(=O)CC(OC(C)=O)C1=CC(=O)OC1O (centres unmarked)")
7.30
>>> reported("CC1=C(CC/C(C)=C/CCC2=CCC(C3=CC(=O)OC3O)OC2O)C(C)(C)CCC1 (centres unmarked)")
7.52
>>> reported("CCCCCCCCCCCCNS(=O)(=O)/C=C/C1=CC(=O)OC1O (centres unmarked)")
7.40

Alright, here's another compound for you.
System UniProt:P00630. Read-out pIC50. Item CCCCCCCCCCCCNS(=O)(=O)CC(OC(=O)CCCC(=O)O)C1=CC(=O)OC1O (centres unmarked) . Report value. 7.30
